# Test system: IL-2-FL/Gaussia Luciferase
# assayDetails: Dox Induced IL2-FL-Gluc Assay
# Type: cell-based
# particulars: ratio of IL2FLGluc IC50 to PD1ssGluc IC50
Recorded measurements of 24 hr Dox Inducible IL2FLGluc 293FRT/TO: IL2/PD1, one per entry
resultType: 24 hr Dox Inducible IL2FLGluc 293FRT/TO: IL2/PD1

CC(=O)N1CCC(Oc2ccc(N3CCC[C@@H]3c3csc(NC(=O)c4cccn4Cc4ccncc4)n3)cc2)CC1 ... 2.6
CC(=O)N1CCC(c2ccc(N3CCC[C@@H]3c3csc(NC(=O)c4cccn4Cc4ccncc4)n3)cc2)CC1 ... 3
O=C(Nc1nc([C@H]2CCCN2c2ccc([N+](=O)[O-])cc2)cs1)c1cccn1Cc1ccncc1 ... 2.5
C[C@H](N)c1ccc(N2CCC[C@@H]2c2csc(NC(=O)c3cccn3Cc3ccncc3)n2)cc1 ... 2.7
O=C(Nc1nc([C@H]2CCCN2c2ccc(OC3CN(C(=O)C4CC4)C3)cc2)cs1)c1cccn1Cc1ccnc(F)c1 ... 2.9
